The measured values listed here are drawn from ChEMBL document CHEMBL1148469.

- experimental target: Cyclin-dependent kinase 1/cyclin B (Marthasterias glacialis)
- assay explanation: Inhibitory activity against cyclin dependent kinase 1-cyclinB from starfish (Marthasterias glacialis) oocytes
Please provide measured pIC50 for the entries that follow.
Answers are plain numbers, as −log10 of the molar value.

Use the examples below as a reference point.
In [3]: df
Out[3]:
                                   compound  numeric_readout
0  Cn1c(O)c(-c2[nH]c3ccccc3c2N=O)c2ccc(Br)cc21             4.04
1  O=Nc1c(-c2c(O)[nH]c3cc(Cl)ccc23)[nH]c2ccccc12             6.19
2  C=Cc1ccc2c(C3=Nc4ccccc4C3=O)c(O)[nH]c2c1             5.38
3   Cn1c(O)c(-c2[nH]c3ccccc3c2N=O)c2ccccc21             4.14
4  CC(=O)O/N=C1/C(=C2/C(=O)Nc3cc(Cl)c(Cl)cc32)Nc2ccccc21 [INDIRUBIN 1]             4.52
5  C=Cc1ccc2c(-c3[nH]c4ccccc4c3N=O)c(O)[nH]c2c1             5.92

Now let's try a different one.
The reported pIC50 of the compound CC(=O)O/N=C1/C(c2c(O)[nH]c3cc(Cl)ccc23)=Nc2ccccc21 was 4.52

---

Please provide measured IC50 for the entries that follow.
- experimental target: Cyclin-dependent kinase 5/CDK5 activator 1 (Homo sapiens)
- assay explanation: Inhibitory activity against Cyclin-dependent kinase 5-p35nck5a
Numbers only, in µM.

Use the examples below as a reference point.
                               entry_smiles  numeric_readout
0  CC(=O)O/N=C1/C(=C2/C(=O)Nc3cc(Cl)c(Cl)cc32)Nc2ccccc21              0.1
1  O=Nc1c(-c2c(O)[nH]c3cc(Br)c([N+](=O)[O-])cc23)[nH]c2ccccc12             0.15
2  O=C1C(c2c(O)[nH]c3cc(I)ccc23)=Nc2ccccc21              5.3
3  CC(=O)O/N=C1/C(c2c(O)[nH]c3cc(Cl)ccc23)=Nc2ccccc21              0.2

Batch: IC50 for all items listed.
1. O=C1C(c2c(O)[nH]c3cc(Br)ccc23)=Nc2ccccc21
2. C=Cc1ccc2c(C3=Nc4ccccc4/C3=N\OC(C)=O)c(O)[nH]c2c1
3. Cc1cc2c(C3=Nc4ccccc4C3=O)c(O)[nH]c2cc1Br

RESULT:
1. 53
2. 0.4
3. 60

---

- experimental target: Cyclin-dependent kinase 1/cyclin B (Marthasterias glacialis)
- assay explanation: Inhibitory activity against cyclin dependent kinase 1-cyclinB from starfish (Marthasterias glacialis) oocytes
Cut-off 20 µM on IC50: below means condition met, at or above means condition not met.

Illustrative cases are given below, each with its answer.
In [3]: df
Out[3]:
                                   molecule     assigned_class
0  O=C1C(c2c(O)[nH]c3cc(Cl)ccc23)=Nc2ccccc21  condition not met
1  O=Nc1c(-c2c(O)[nH]c3ccccc23)[nH]c2cc(Br)ccc12      condition met
2  CO/N=C1/C(c2c(O)[nH]c3cc(Br)ccc23)=Nc2ccccc21      condition met
3  O=C1C(c2c(O)[nH]c3cc(Br)c([N+](=O)[O-])cc23)=Nc2ccccc21  condition not met
4  O=Nc1c(-c2c(O)[nH]c3cc(F)ccc23)[nH]c2ccccc12      condition met

QUERY: Identify whether the molecule CC(=O)O/N=C1/C(=C2/C(=O)Nc3cc(Br)ccc32)Nc2ccccc21 [6-BROMOINDIRUBIN-3'-ACETOXIME] records IC50 below 20 µM.
RESULT: condition not met

---

Please provide measured IC50 for the entries that follow.
- experimental target: Glycogen synthase kinase-3 alpha/beta (Sus scrofa)
- assay explanation: Inhibition of glycogen synthase kinase-3-alpha/beta (GSK-3-alpha/beta) in porcine brain relative to indirubin
Numbers only, in nM.

                               entry_smiles  numeric_readout
0  O=C1C(c2c(O)[nH]c3ccc(F)cc23)=Nc2ccccc21               78
1  O=C1C(c2c(O)[nH]c3ccc(Br)cc23)=Nc2ccccc21               55

Batch: IC50 for all items listed.
1. O=C1C(c2c(O)[nH]c3ccc(Cl)cc23)=Nc2ccccc21
2. O=C1C(c2c(O)[nH]c3ccc(Br)cc23)=Nc2ccc(Br)cc21

RESULT:
1. 50
2. 250

Batch: IC50 for all items listed.
1. Cc1ccc2[nH]c(O)c(C3=Nc4ccccc4C3=O)c2c1
2. O=C1C(c2c(O)[nH]c3ccc([N+](=O)[O-])cc23)=Nc2ccccc21
3. O=C1C(c2c(O)[nH]c3ccccc23)=Nc2ccc(Br)cc21

RESULT:
[62, 42, 350]

---

- experimental target: Glycogen synthase kinase-3 alpha/beta (Sus scrofa)
- assay explanation: Inhibitory activity against GSK-3-alpha/beta from porcine brain
parameter: log10 IC50 (log10 of the value in nM)
Friendly reminder: values = log10 of IC50, unit nM.

Use the examples below as a reference point.
                               entry_smiles                       experimental_target   parameter  numeric_readout
0  CC(=O)O/N=C1/C(=C2/C(=O)Nc3cc(Br)ccc32)Nc2ccccc21  Glycogen synthase kinase-3 alpha/beta (Sus scrofa)  log10 IC50             1.00
1  CC(=O)O/N=C1/C(=C2/C(=O)Nc3cc(Cl)c(Cl)cc32)Nc2ccccc21  Glycogen synthase kinase-3 alpha/beta (Sus scrofa)  log10 IC50             0.60
2  Cc1cc2c(C3=Nc4ccccc4C3=O)c(O)[nH]c2cc1Br  Glycogen synthase kinase-3 alpha/beta (Sus scrofa)  log10 IC50             1.40
3  O=Nc1c(-c2c(O)[nH]c3cc(Br)ccc23)[nH]c2cc(Br)ccc12  Glycogen synthase kinase-3 alpha/beta (Sus scrofa)  log10 IC50             2.08
4  C=Cc1ccc2c(C3=Nc4ccccc4/C3=N\OC(C)=O)c(O)[nH]c2c1  Glycogen synthase kinase-3 alpha/beta (Sus scrofa)  log10 IC50             1.81

Batch: log10 IC50 for all items listed.
1. O=C1C(c2c(O)[nH]c3cc(Cl)c(Cl)cc23)=Nc2ccccc21
2. O=Nc1c(-c2c(O)[nH]c3cc(Cl)ccc23)[nH]c2ccccc12
3. C=Cc1ccc2c(-c3[nH]c4ccccc4c3N=O)c(O)[nH]c2c1

RESULT:
1.48
1.30
1.78

Form: item CC(=O)O/N=C1/C(c2c(O)[nH]c3cc(Cl)ccc23)=Nc2ccccc21 ; test system Glycogen synthase kinase-3 alpha/beta (Sus scrofa); log10 IC50: 1.23

---

- experimental target: Glycogen synthase kinase-3 alpha/beta (Sus scrofa)
- assay explanation: Inhibitory activity against GSK-3-alpha/beta from porcine brain
parameter: IC50 (µM)
Numbers only, in µM.

Use the examples below as a reference point.
>>> df
                               entry_smiles  numeric_readout
0  O=C1C(c2c(O)[nH]c3cc(I)ccc23)=Nc2ccccc21            0.055
1  CC(=O)O/N=C1/C(=C2/C(=O)Nc3cc(Br)c(C)cc32)Nc2ccccc21            0.007
2  O=C1C(c2c(O)[nH]c3cc(Cl)ccc23)=Nc2ccccc21             0.14
3  CO/N=C1/C(c2c(O)[nH]c3cc(Br)ccc23)=Nc2ccccc21             0.03

Batch: IC50 for all items listed.
1. O=Nc1c(-c2c(O)[nH]c3cc(F)ccc23)[nH]c2ccccc12
2. CC(=O)O/N=C1/C(c2c(O)[nH]c3cc(I)ccc23)=Nc2ccccc21
3. C=Cc1ccc2c(C3=Nc4ccccc4C3=O)c(O)[nH]c2c1
4. CC(=O)O/N=C1/C(=C2/C(=O)Nc3cc(Br)c([N+](=O)[O-])cc32)Nc2ccccc21
5. O=C1C(c2c(O)[nH]c3ccccc23)=Nc2cc(Br)ccc21
6. O=C1C(c2c(O)[nH]c3cc(Br)c([N+](=O)[O-])cc23)=Nc2ccccc21
7. O=C1C(c2c(O)[nH]c3cc(Br)ccc23)=Nc2cc(Br)ccc21

RESULT:
1: 0.13; 2: 0.013; 3: 0.24; 4: 0.006; 5: 22; 6: 0.1; 7: 4.5

---

- experimental target: Cyclin-dependent kinase 5/CDK5 activator 1 (Homo sapiens, UniProt Q00535)
- Sequence (Q00535 whole entry): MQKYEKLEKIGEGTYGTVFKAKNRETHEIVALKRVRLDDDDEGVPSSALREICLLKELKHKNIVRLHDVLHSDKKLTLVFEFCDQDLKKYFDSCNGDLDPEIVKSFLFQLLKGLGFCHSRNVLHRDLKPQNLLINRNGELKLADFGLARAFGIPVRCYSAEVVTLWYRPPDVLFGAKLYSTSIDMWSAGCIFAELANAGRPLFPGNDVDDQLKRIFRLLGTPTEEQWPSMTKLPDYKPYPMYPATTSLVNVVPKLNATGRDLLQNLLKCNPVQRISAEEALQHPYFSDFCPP
- Sequence (Q15078 whole entry, further chain): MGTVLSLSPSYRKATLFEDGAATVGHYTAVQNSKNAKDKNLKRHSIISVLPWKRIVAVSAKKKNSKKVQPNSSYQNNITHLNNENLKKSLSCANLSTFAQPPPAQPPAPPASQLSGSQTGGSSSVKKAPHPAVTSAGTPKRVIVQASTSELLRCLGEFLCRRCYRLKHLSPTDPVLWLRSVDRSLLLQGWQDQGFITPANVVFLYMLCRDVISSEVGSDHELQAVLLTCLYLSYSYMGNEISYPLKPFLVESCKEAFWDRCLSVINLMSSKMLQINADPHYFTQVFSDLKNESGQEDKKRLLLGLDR
- assay explanation: Inhibitory activity against Cyclin-dependent kinase 5-p35nck5a
Please provide measured pIC50 for the entries that follow.
One number for each entry, as −log10 of the molar value.

In [3]: df
Out[3]:
                               entry_smiles                       experimental_target  parameter  numeric_readout
0  O=C1C(c2c(O)[nH]c3cc(F)ccc23)=Nc2ccccc21  Cyclin-dependent kinase 5/CDK5 activator 1 (Homo sapiens, UniProt Q00535)      pIC50             6.00
1  CC(=O)O/N=C1/C(c2c(O)[nH]c3ccccc23)=Nc2ccccc21  Cyclin-dependent kinase 5/CDK5 activator 1 (Homo sapiens, UniProt Q00535)      pIC50             6.15
2  O=Nc1c(-c2c(O)[nH]c3cc(Cl)ccc23)[nH]c2ccccc12  Cyclin-dependent kinase 5/CDK5 activator 1 (Homo sapiens, UniProt Q00535)      pIC50             7.00
3  CC(=O)O/N=C1/C(c2c(O)[nH]c3cc(F)ccc23)=Nc2ccccc21  Cyclin-dependent kinase 5/CDK5 activator 1 (Homo sapiens, UniProt Q00535)      pIC50             6.52
4  C=Cc1ccc2c(C3=Nc4ccccc4C3=O)c(O)[nH]c2c1  Cyclin-dependent kinase 5/CDK5 activator 1 (Homo sapiens, UniProt Q00535)      pIC50             5.62
5  O=C1C(c2c(O)[nH]c3cc(Cl)c(Cl)cc23)=Nc2ccccc21  Cyclin-dependent kinase 5/CDK5 activator 1 (Homo sapiens, UniProt Q00535)      pIC50             4.22
6  O=Nc1c(-c2c(O)[nH]c3cc(F)ccc23)[nH]c2ccccc12  Cyclin-dependent kinase 5/CDK5 activator 1 (Homo sapiens, UniProt Q00535)      pIC50             6.82
7  CC(=O)O/N=C1/C(=C2/C(=O)Nc3cc(Br)c(C)cc32)Nc2ccccc21  Cyclin-dependent kinase 5/CDK5 activator 1 (Homo sapiens, UniProt Q00535)      pIC50             4.52

Batch: pIC50 for all items listed.
1. CO/N=C1/C(c2c(O)[nH]c3cc(Br)ccc23)=Nc2ccccc21
2. Cc1cc2c(-c3[nH]c4ccccc4c3N=O)c(O)[nH]c2cc1Br
3. CC(=O)O/N=C1/C(=C2/C(=O)Nc3cc(Br)ccc32)Nc2ccccc21

RESULT:
1: 5.66; 2: 6.89; 3: 5.62

Batch: pIC50 for all items listed.
1. CO/N=C1/C(c2c(O)[nH]c3ccccc23)=Nc2ccccc21
2. O=C1C(c2c(O)[nH]c3cccc(Cl)c23)=Nc2ccccc21
3. C=Cc1ccc2c(-c3[nH]c4ccccc4c3N=O)c(O)[nH]c2c1
4. CC(=O)O/N=C1/C(c2c(O)[nH]c3cc(I)ccc23)=Nc2ccccc21
5. CC(=O)O/N=C1/C(=C2/C(=O)Nc3cc(Br)c([N+](=O)[O-])cc32)Nc2ccccc21
6. O=Nc1c(-c2c(O)[nH]c3cc(I)ccc23)[nH]c2ccccc12

RESULT:
1. 6.40
2. 5.00
3. 6.38
4. 5.89
5. 4.51
6. 6.52

The reported pIC50 of the compound O=Nc1c(-c2c(O)[nH]c3cc(Br)ccc23)[nH]c2cc(Br)ccc12 was 5.89
